Target: FtsQ (58–276), periplasmic domain of E. coli FtsQ (Escherichia coli strain K-12, UniProt P06136 58-276)
Sequence (P06136 58-276): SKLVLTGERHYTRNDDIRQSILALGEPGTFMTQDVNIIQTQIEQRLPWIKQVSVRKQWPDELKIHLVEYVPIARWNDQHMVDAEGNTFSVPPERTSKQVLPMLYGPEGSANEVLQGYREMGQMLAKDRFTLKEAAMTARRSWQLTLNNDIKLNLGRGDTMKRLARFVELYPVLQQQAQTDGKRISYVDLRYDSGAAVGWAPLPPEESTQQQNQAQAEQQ
Assay: SPR; minor phase
QUANTITY: pKd
Give bare numbers, as −log10 of the molar value.

>  <BINDER>
FtsN (58–320) plus FtsB (22–103), bound together (other) chain 1: GKNGIHDYTRVNDDVAAQQATNAKLKARNDQLFAEIDDLNGGQEALEERARNELSMTRPGETFYRLVPDASKRAQSAGQNNR chain 2: HKKEESETLQSQKVTGNGLPPKPEERWRYIKELESRQPGVRAPTEPSAGGEVKTPEQLTPEQRQLLEQMQADMRQQPTQLVEVPWNEQTPEQRQQTLQRQRQAQQLAEQQRLAQQSRTTEQSWQQQTRTSQAAPVQAQPRQSKPASSQQPYQDLLQTPAHTTAQSKPQQAAPVARAADAPKPTAEKKDERRWMVQCGSFRGAEQAETVRAQLAFEGFDSKITTNNGWNRVVIGPVKGKENADSTLNRLKMAGHTNCIRLAAGG

>  <QUANTITY>
pKd

>  <READING>
5.25

$$$$

Consider the record given below.
Query: Look at this binder and give its reported pKd. FtsB (22–103), periplasmic domain of E. coli FtsB (domain or fragment) GKNGIHDYTRVNDDVAAQQATNAKLKARNDQLFAEIDDLNGGQEALEERARNELSMTRPGETFYRLVPDASKRAQSAGQNNR
Response: 4.96
